molecular target: ROCK1 (Homo sapiens (Human)); test: ROCK assay (LABCHIP peptide phosphorylation), ROCK1; assay type: biochemical; conditions: 5 μM ATP, 1.5 μM peptide substrate; read-out: ROCK1 IC50
Sequence (Q13464 whole entry, species assumed): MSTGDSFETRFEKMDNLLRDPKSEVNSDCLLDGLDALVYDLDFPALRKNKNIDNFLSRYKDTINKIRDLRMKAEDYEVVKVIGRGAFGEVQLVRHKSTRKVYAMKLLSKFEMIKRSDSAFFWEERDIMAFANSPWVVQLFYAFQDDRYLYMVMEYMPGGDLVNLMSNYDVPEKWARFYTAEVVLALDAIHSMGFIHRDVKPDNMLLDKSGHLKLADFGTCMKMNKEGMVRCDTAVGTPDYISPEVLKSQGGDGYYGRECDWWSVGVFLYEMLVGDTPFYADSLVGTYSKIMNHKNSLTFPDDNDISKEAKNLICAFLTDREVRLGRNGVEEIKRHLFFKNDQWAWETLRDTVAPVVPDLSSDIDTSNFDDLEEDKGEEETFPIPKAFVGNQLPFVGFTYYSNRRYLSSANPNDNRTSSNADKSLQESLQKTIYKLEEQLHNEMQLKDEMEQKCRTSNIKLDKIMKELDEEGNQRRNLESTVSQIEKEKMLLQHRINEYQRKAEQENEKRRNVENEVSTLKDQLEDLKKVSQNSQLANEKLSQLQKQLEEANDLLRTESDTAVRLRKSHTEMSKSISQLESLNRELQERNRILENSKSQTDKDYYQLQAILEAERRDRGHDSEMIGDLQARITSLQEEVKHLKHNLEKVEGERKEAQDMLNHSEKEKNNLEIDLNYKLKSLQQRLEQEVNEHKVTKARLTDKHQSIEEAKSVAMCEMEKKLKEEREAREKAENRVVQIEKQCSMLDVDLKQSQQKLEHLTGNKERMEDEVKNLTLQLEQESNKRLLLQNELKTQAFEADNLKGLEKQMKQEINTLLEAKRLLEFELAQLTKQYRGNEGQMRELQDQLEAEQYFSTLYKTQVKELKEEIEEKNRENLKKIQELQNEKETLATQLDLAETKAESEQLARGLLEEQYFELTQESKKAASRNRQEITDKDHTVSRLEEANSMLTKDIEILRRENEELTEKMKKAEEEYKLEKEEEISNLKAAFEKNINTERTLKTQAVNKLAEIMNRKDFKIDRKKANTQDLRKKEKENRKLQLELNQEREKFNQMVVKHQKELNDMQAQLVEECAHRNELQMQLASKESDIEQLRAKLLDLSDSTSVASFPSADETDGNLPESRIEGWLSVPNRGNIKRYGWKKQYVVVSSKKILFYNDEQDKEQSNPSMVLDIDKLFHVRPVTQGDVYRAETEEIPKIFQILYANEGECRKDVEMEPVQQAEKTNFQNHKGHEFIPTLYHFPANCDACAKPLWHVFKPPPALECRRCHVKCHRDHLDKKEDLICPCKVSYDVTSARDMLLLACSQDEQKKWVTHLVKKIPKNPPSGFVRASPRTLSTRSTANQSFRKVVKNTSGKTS
Where a name gives a salt, the structure may show the parent alone.
property_name: IC50

Go through the list and state IC50 for each entry.
1. CN(C)c1ccc2cc(C(=O)Nc3ccc(-c4n[nH]c(=O)c5ccccc45)cc3)[nH]c2c1
2. COc1ccc2c(c1)CN(C(=O)Oc1ccc(-c3c[nH]c(=O)c4ccc(OC)cc34)cc1)C2
3. O=C(Nc1ccc(-c2n[nH]c(=O)c3ccccc23)cc1)c1cnn(CC(F)(F)F)c1 [Example 376, TFA]
4. O=C(Nc1ccc(-c2n[nH]c(=O)c3ccccc23)cc1)c1nn(Cc2cccnc2)c2ccccc12

Out:
0.0001 to 0.1 µM
0.101 to 1 µM
0.101 to 1 µM
0.0001 to 0.1 µM

----------
molecular target: ROCK2 (Homo sapiens (Human)); experiment: ROCK assay (LABCHIP peptide phosphorylation), ROCK2; type: biochemical; conditions: 5 μM ATP, 1.5 μM peptide substrate
Sequence (O75116 whole entry, species assumed): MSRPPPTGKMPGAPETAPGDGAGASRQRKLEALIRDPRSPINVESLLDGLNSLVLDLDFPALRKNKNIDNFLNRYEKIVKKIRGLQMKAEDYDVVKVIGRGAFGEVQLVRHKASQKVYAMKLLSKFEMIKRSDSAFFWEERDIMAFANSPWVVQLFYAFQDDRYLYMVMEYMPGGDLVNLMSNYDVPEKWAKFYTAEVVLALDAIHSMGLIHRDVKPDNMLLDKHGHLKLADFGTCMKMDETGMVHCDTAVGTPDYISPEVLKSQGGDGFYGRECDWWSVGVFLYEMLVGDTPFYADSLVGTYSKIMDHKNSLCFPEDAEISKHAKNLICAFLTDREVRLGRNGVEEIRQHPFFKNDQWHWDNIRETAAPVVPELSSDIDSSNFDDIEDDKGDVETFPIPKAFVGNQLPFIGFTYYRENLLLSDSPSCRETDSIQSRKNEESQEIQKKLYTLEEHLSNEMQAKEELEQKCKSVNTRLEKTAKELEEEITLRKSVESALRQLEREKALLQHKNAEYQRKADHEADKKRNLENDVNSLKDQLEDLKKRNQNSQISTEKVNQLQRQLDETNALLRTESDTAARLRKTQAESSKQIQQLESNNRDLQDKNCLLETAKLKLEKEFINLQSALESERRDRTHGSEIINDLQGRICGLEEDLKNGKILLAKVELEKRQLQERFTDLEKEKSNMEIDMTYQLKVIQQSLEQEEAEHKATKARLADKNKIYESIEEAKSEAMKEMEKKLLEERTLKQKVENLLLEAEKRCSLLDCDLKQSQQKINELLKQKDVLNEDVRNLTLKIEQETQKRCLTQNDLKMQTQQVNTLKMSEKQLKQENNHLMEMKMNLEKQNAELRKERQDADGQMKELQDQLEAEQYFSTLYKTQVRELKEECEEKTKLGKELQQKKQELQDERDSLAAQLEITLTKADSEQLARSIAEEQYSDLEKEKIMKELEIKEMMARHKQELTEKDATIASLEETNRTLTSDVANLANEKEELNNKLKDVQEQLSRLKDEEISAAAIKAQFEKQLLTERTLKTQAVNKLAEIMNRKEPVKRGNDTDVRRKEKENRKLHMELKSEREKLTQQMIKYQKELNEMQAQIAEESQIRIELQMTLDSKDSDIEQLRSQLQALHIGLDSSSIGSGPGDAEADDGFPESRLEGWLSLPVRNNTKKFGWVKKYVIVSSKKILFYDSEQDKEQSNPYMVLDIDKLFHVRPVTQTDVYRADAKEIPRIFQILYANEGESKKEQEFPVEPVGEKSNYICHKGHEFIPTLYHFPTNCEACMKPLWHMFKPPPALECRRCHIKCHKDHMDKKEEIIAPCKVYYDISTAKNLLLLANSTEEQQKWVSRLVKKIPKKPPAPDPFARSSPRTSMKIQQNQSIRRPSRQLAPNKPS
property_name: IC50

Known IC50 results, listed for orientation:
O=C(Nc1ccc(-c2n[nH]c(=O)c3ccccc23)cc1)c1ccc(-n2ccnc2)cc1 : 0.1 to 100 nM
O=c1[nH]nc(-c2ccc(Nc3ncc(-c4ccccc4)o3)cc2)c2ccccc12 : 0.1 to 100 nM
O=C(Nc1ccc(-c2c[nH]c(=O)c3ccccc23)cc1)c1ccc(N2CCCC2)cc1 : 0.1 to 100 nM
O=C(Cc1ccc(-c2n[nH]c(=O)c3ccccc23)cc1)Nc1nc2ccccc2[nH]1 : 0.1 to 100 nM
O=C(Nc1ccc(-c2n[nH]c(=O)c3ccccc23)cc1)c1csc(-c2cc(F)cc(F)c2)n1 : 0.1 to 100 nM

For each listed entry, give its IC50.
1. O=C(Nc1ccc(-c2n[nH]c(=O)c3ccccc23)cc1)c1cnn(C2CCOCC2)c1
2. Cn1nc(C(=O)Nc2ccc(-c3n[nH]c(=O)c4ccccc34)cc2)cc1C12CC3CC(CC(C3)C1)C2
3. O=C(Nc1ccc(-c2n[nH]c(=O)c3ccccc23)cc1)c1cnn(-c2ccccc2)c1Cl
4. O=C(Cc1ccc(-c2c[nH]c(=O)c3ccccc23)cc1)N1Cc2ccccc2C1
5. CCOc1ccc2oc(C)c(C(=O)Nc3ccc(-c4n[nH]c(=O)c5ccccc45)cc3)c2c1
6. O=C(Cn1nc(C(=O)Nc2ccc(-c3n[nH]c(=O)c4ccccc34)cc2)c2ccccc21)NCC1(O)CCC1

Out:
["0.1 to 100 nM", "0.1 to 100 nM", "0.1 to 100 nM", "0.1 to 100 nM", "0.1 to 100 nM", "0.1 to 100 nM"]

Okay, here is my list. What is IC50 for each of these?
1. Cc1cc(NC(=O)c2nn(CC3(C)COC3)c3ccccc23)ccc1-c1n[nH]c(=O)c2ccccc12
2. O=C(Nc1ccc(-c2n[nH]c(=O)c3ccccc23)cc1)c1cn2ccccc2n1
3. Cc1c(C(=O)Nc2ccc(-c3n[nH]c(=O)c4ccccc34)cc2)nnn1-c1cccc(C(F)(F)F)c1

Out:
["0.1 to 100 nM", "0.1 to 100 nM", "0.1 to 100 nM"]

Provide IC50 values for the following items, in order.
1. Cc1noc(-c2ccc(C(C)(C)O)cc2)c1C(=O)Nc1ccc(-c2n[nH]c(=O)c3ccccc23)cc1
2. O=C(Nc1ccc(-c2c[nH]c(=O)c3ccccc23)cc1)N1CCc2ccccc21

Out:
["0.1 to 100 nM", "0.1 to 100 nM"]
